Some compounds, each annotated with its measured normalized growth.
ASSAY_COMMENT: chemical genetic growth profiling, strain panel (AID 1159580);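 note: tested at 20 µM; growth read once vehicle control cultures reached saturation at 30 °C; 1 = growth at the plate median or of vehicle wells; lower values mean less growth of the strain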
APPLIED_CONDITIONS: S. cerevisiae deletion strains, growth OD, locus YLR342W, strain FKS1 (second series), active compounds read low
The campaign covered roughly 5,500 compounds. About 2,000 (36%) were called active. Inconclusive results (about 18%) are left out. Some of the results follow.
Reply: number alone, nothing else.

Some solved entries appear below for comparison.
{"columns": ["COMPOUND", "READOUT_VALUE"],
 "data": [
  ["CCC(c1ccc(O)cc1)C(CC)c1ccc(O)cc1 (stereo unspecified)", 0.962],
  ["O=C(O[C@@H]1Cc2c(O)cc(O)cc2O[C@@H]1c1cc(O)c(=O)c2c(O)c(O)cc([C@H]3Oc4cc(O)cc(O)c4C[C@H]3OC(=O)c3cc(O)c(O)c(O)c3)c2c1)c1cc(O)c(O)c(O)c1", 0.449],
  ["CCOC(=O)NC1=C(C2CC2)C(=O)C(NC(=O)OCC)=C(C2CC2)C1=O", 0.976],
  ["NC(=O)NCCCC(N)C(=O)O (stereo unspecified)", 1.01],
  ["CC/C(=C(/CC)c1ccc(O)cc1)c1ccc(O)cc1", 0.89]
]}

Now consider a different compound.
Enquiry: If you can, please state the reported normalized growth value of CCC(N)C(O)c1ccc(O)c(O)c1 (stereo unspecified) .
Return: 0.989

----------
ASSAY_COMMENT: chemical genetic growth profiling, strain panel (AID 1159580);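 note: tested at 20 µM; growth read once vehicle control cultures reached saturation at 30 °C; 1 = growth at the plate median or of vehicle wells; lower values mean less growth of the strain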
APPLIED_CONDITIONS: S. cerevisiae deletion strains, growth OD, locus YAL040C, strain CLN3, active compounds read low
Hit rate of the full screen: of about 5,500 compounds, about 2,000 (36%) were called active. Inconclusive results (about 18%) are left out. The list shows a part of the results.
RECORDED_ENDPOINT: normalized growth
Kindly provide the number alone.

// known answers, use as guide
{"columns": ["COMPOUND", "normalized growth"],
 "data": [
  ["S=C=Nc1cccc(C2(N3CCCCC3)CCCCC2)c1", 0.998],
  ["CC1(C)CCC(NC(=O)[C@@H](N)CCC(=O)O)CC1", 1.02],
  ["N#CC(C#N)=Cc1cc(O)c(O)c(O)c1", 0.951],
  ["CN(C)c1ccc(/C=C2\\C(=O)Nc3ccccc32)cc1", 0.95],
  ["COC(=O)[C@@H]1[C@H]2C[C@H]3c4[nH]c5ccccc5c4CCN3C[C@@H]2CC[C@@H]1O", 1.03]
]}

Enquiry: Report normalized growth for Cc1cc(C)c(/C=C2\C(=O)Nc3ccccc32)[nH]1 please.
Return: 1.06

Enquiry: Record: O=C1CCC(c2ccc(-n3ccnc3)cc2)=NN1
Return: 0.943

Enquiry: Another compound: N#CC(C#N)=Cc1ccc(O)c(O)c1
Return: 1.01

Enquiry: Can you handle COc1cc(C=C(C#N)C#N)cc(O)c1O next?
Return: 0.941

----------
ASSAY_COMMENT: chemical genetic growth profiling, strain panel (AID 1159580);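 note: tested at 20 µM; growth read once vehicle control cultures reached saturation at 30 °C; 1 = growth at the plate median or of vehicle wells; lower values mean less growth of the strain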
APPLIED_CONDITIONS: S. cerevisiae deletion strains, growth OD, locus YHR094C, strain hxt1
Hit rate of the full screen: of about 5,500 compounds, about 2,000 (36%) were called active. Not shown: some 18% with an inconclusive outcome. Cut-off read from the data, not from the text of the source: active = normalized growth mostly below about 0.91 (no sharp cut-off); inconclusive = no clear call, values can overlap the other calls; inactive = mostly above about 0.92. Some of the results follow.
Select the matching outcome among 1 (active), 0 (inactive)

{"columns": ["MOLECULE", "ASSIGNED_CATEGORY"],
 "data": [
  ["CN1C[C@H](C(=O)N[C@]2(C)O[C@@]3(O)[C@@H]4CCCN4C(=O)[C@H](Cc4ccccc4)N3C2=O)C[C@@H]2c3cccc4[nH]cc(c34)C[C@H]21", 0],
  ["NC(N)=NC(=O)c1nc(Cl)c(N)nc1N", 0],
  ["CC(C)N(CCC(C(N)=O)(c1ccccc1)c1ccccn1)C(C)C (stereo not given)", 0]
]}

Enquiry: For this molecule, state the assay outcome: NC(N)=NC(=O)c1nc(Cl)c(N2CCCCCC2)nc1N
Return: 0

Enquiry: Let us now turn to CC(=O)[C@@]1(O)CCC2C3C[C@H](C)C4=CC(=O)C=CC4(C)[C@@]3(F)[C@@H](O)C[C@@]21C (stereo not given in full)
Return: 0

Enquiry: What about this molecule? CCc1cccc(CC)c1N(COC)C(=O)CCl
Return: 0

Enquiry: Next entry: CN(C)c1nc(N)c(C(=O)N=C(N)N)nc1Cl
Return: 0

Enquiry: Next molecule: CCCCCCCCCCCCCCCCCC(=O)OC(CC(=O)O)C[N+](C)(C)C (stereo not given)
Return: 1

Enquiry: Would you kindly repeat that for CC1=CC(=O)C2=C(C)CC[C@@H]3[C@H](OC(=O)[C@H]3C)[C@@H]12 ?
Return: 0

Enquiry: Further, for NC(=O)NCC(N)C(=O)O (stereo not given) ?
Return: 0
